Tested on: ISC-enriched organoids
Test: Primary screen, 384-well 2.5-D organoid differentiation (ENR+CD, 6 days, Target Selective Inhibitor Library, vs whole-plate median): ATP (CellTiter-Glo 3D, CTG)
Details: Dose 0.40 uM; primary screen, standard z score
Parameter Measured: Z.CTG

Examples from the recorded data:
O=C(/C=C\n1cnc(-c2cc(C(F)(F)F)cc(C(F)(F)F)c2)n1)N1CC(F)(F)C1: −0.104
CCOC(=O)CCNc1cc(N2CCc3ccccc3CC2)nc(-c2ccccn2)n1.Cl [GSK J4 HCl]: 0.237
C[C@@H](Oc1cc(-n2cnc3ccc(CN4CCN(C)CC4)cc32)sc1C(N)=O)c1ccccc1C(F)(F)F: −0.368
Clc1ccc(N/N=C(\c2ccccc2)c2ccccn2)nc1: 0.258
CC(C)c1onc(-c2c(Cl)cccc2Cl)c1COc1ccc(/C=C/c2cccc(C(=O)O)c2)c(Cl)c1: 0.334
CC1=C(C(=O)Nc2cc3cn[nH]c3cc2F)C(c2ccc(C(F)(F)F)cc2)CC(=O)N1 (centres unmarked) [GSK429286A]: 1.302

Memo: CCc1c2c(nc3ccc(OC(=O)N4CCC(N5CCCCC5)CC4)cc13)-c1cc3c(c(=O)n1C2)COC(=O)[C@]3(O)CC [Irinotecan] , reported Z.CTG: −1.872

Field Z.CTG (entry CN(Cc1cnc2nc(N)nc(N)c2n1)c1ccc(C(=O)N[C@@H](CCC(=O)O)C(=O)O)cc1 [Methotrexate] ) reads −1.724

====

System: ISC-enriched organoids
Experiment: Primary screen, 384-well 2.5-D organoid differentiation (ENR+CD, 6 days): basal lysozyme secretion (LYZ.NS)
Assay type: cell-based, murine
Details: primary screen, dose 2.00 uM, ENR+CD 6 days, FC vs plate median
Each entry gets not met if its Dose.FC.LYZ.NS stays under -0.07 log 2 fold change, and met if its Dose.FC.LYZ.NS is -0.07 log 2 fold change or above.

Worked cases, answers included:
CC1(C)CCC(c2ccc(Cl)cc2)=C(CN2CCN(c3ccc(C(=O)NS(=O)(=O)c4ccc(N[C@H](CCN5CCOCC5)CSc5ccccc5)c(S(=O)(=O)C(F)(F)F)c4)cc3)CC2)C1 [ABT-263 (Navitoclax)]: not met
O=C(/C=C/c1cccc(S(=O)(=O)Nc2ccccc2)c1)NO [Belinostat (PXD101)]: not met
COc1cc(N2CCC(N)CC2)ccc1Nc1ncc(Cl)c(-c2c[nH]c3ccccc23)n1 [AZD3463]: not met
C[C@@H]1COCCN1c1cc(C2(S(C)(=O)=O)CC2)nc(-c2cccc3[nH]ccc23)n1 [AZ20]: not met
COc1cc(F)c(C(C)C)cc1-c1ccc(C(F)(F)F)cc1CN1C(=O)O[C@H](c2cc(C(F)(F)F)cc(C(F)(F)F)c2)[C@@H]1C [Anacetrapib (MK-0859)]: met

Reported Dose.FC.LYZ.NS reaches at least -0.07 log 2 fold change for COC1CCN(C(=O)c2cc(Cc3n[nH]c(=O)c4ccccc34)ccc2F)CC1 [AZD2461] ?
not met

Does O=C(c1ccc(F)cc1)N1CCC[C@H](c2nc(-c3ccc(F)cc3)no2)C1 [ADX-47273] have a reported Dose.FC.LYZ.NS of at least -0.07 log 2 fold change?
met

Check this molecule for Dose.FC.LYZ.NS at or above -0.07 log 2 fold change: COc1ccnc2[nH]cc(C(=O)C(=O)N3CCN(C(=O)c4ccccc4)C[C@H]3C)c12 [BMS-378806]
not met

Would you say CN(C)C(=O)c1ccc(S(=O)(=O)c2ccc(NC(=O)[C@@](C)(O)C(F)(F)F)c(Cl)c2)cc1 [AZD7545] shows Dose.FC.LYZ.NS at minimum -0.07 log 2 fold change?
met

Would you say CC(C)N(CC[C@H](c1ccccc1)c1cc(CO)ccc1O)C(C)C [4CE°8C] shows Dose.FC.LYZ.NS at minimum -0.07 log 2 fold change?
met

Does Dose.FC.LYZ.NS meet or surpass -0.07 log 2 fold change for C/C(=C\C(=O)Nc1ccccc1C(=O)O)c1ccc2ccccc2c1 [BIBR 1532] ?
met

Evaluate CCNC(=O)c1noc(-c2cc(C(C)C)c(O)cc2O)c1-c1ccc(CN2CCOCC2)cc1 [AUY922 (NVP-AUY922)] : Dose.FC.LYZ.NS at minimum -0.07 log 2 fold change?
not met

# check: Dose.FC.LYZ.NS of Cc1cc2c(C(C)C)c(O)c(O)c(C=O)c2c(O)c1-c1c(C)cc2c(C(C)C)c(O)c(O)c(C=O)c2c1O [AT101] is greater than or equal to -0.07 log 2 fold change
met

Assess whether reported Dose.FC.LYZ.NS for O=C(O)C(Cc1ccccc1[N+](=O)[O-])=NNc1nc(-c2ccc(Cl)c(Cl)c2)cs1 (mixture of isomers) [4EGI-1] sits at -0.07 log 2 fold change or higher.
met

Form field: Dose.FC.LYZ.NS at least -0.07 log 2 fold change? Entry: CN1CCCCC1Cn1cc(C(=O)c2cc([N+](=O)[O-])ccc2I)c2ccccc21 (stereo not drawn) [AM1241]
met

====

System: ISC-enriched organoids
Assay: Primary screen, 384-well 2.5-D organoid differentiation (ENR+CD, 6 days, Target Selective Inhibitor Library, vs whole-plate median): ATP (CellTiter-Glo 3D, CTG)
Conditions: primary screen, dose 10.00 uM, standard z score of FC
Where a name gives a salt, the structure may show the parent alone.
// label = TRUE if Z.CTG is not less than -0.7, otherwise FALSE

Some solved entries appear below for comparison.
O=c1cc(-c2ccc(O)cc2)oc2cc(O)cc(O)c12 [Apigenin]: TRUE
COc1ccc2c(c1)c(CC(=O)N1CCOCC1)c(C)n2C(=O)c1ccc(Cl)cc1 [BML-190]: TRUE
C/C(=C\C(=O)Nc1ccccc1C(=O)O)c1ccc2ccccc2c1 [BIBR 1532]: TRUE
C[C@H](Oc1cc(-c2cnn(C3CCNCC3)c2)cnc1N)c1c(Cl)ccc(F)c1Cl [(S)-crizotinib]: TRUE
CC(C)(C#N)c1cc(Cn2cncn2)cc(C(C)(C)C#N)c1 [Anastrozole]: FALSE
O=C(c1ccc(F)cc1)N1CCC[C@H](c2nc(-c3ccc(F)cc3)no2)C1 [ADX-47273]: TRUE

API: above_or_equal(metric=Z.CTG, cutoff=-0.7) for item NC(=O)c1ncn([C@@H]2O[C@H](CO)[C@@H](O)[C@H]2O)c1N [Acadesine]
TRUE

Could you verify whether the entry O=C1C(=O)N(Cc2ccc(Cl)c(Cl)c2)c2ccccc21 [Apoptosis Activator 2] shows Z.CTG of no less than -0.7?
TRUE

Is reported Z.CTG greater than or equal to -0.7 here: COc1cc(N2CCC(N)CC2)ccc1Nc1ncc(Cl)c(-c2c[nH]c3ccccc23)n1 [AZD3463]
FALSE

Please check the record CC1(C)CCC(c2ccc(Cl)cc2)=C(CN2CCN(c3ccc(C(=O)NS(=O)(=O)c4ccc(N[C@H](CCN5CCOCC5)CSc5ccccc5)c(S(=O)(=O)C(F)(F)F)c4)cc3)CC2)C1 [ABT-263 (Navitoclax)] and state if its Z.CTG is at or above -0.7.
FALSE

Evaluate CCOC(=O)C1=C(COCCN)NC(C)=C(C(=O)OC)C1c1ccccc1Cl (stereo not shown) [Amlodipine] : Z.CTG at minimum -0.7?
FALSE

Does the compound CCN(CC)C(=O)c1ccc(C2=CC3(CCNCC3)Oc3cccc(O)c32)cc1 [ADL5859 HCl] have recorded Z.CTG that is -0.7 or more?
TRUE

Threshold query (Z.CTG >= -0.7) on COc1c(O)cc2c(c1O)[C@@H]1O[C@H](CO)[C@@H](O)[C@H](O)[C@H]1OC2=O [Bergenin]
TRUE

Exam item: decide whether the reported Z.CTG for N#Cc1c(O)c2c(-c3ccc(-c4ccccc4O)cc3)csc2[nH]c1=O [A-769662] is at least -0.7.
TRUE

Does CNC(=O)[C@H](Cc1ccccc1)NC(=O)[C@H](CC(C)C)[C@H](CSc1cccs1)C(=O)NO [Batimastat (BB-94)] have a reported Z.CTG of at least -0.7?
TRUE

Has COC1CCN(C(=O)c2cc(Cc3n[nH]c(=O)c4ccccc34)ccc2F)CC1 [AZD2461] a recorded Z.CTG greater than or equal to -0.7?
FALSE

====

Attribute: Dose.FC.LYZ.NS
Tested on: ISC-enriched organoids
Experiment: Primary screen, 384-well 2.5-D organoid differentiation (ENR+CD, 6 days): basal lysozyme secretion (LYZ.NS)
Format: cell-based, murine
Settings: Dose 10.00 uM; primary screen, FC vs plate median

Worked set:
Cc1cnc(NC(=O)Nc2cc(Br)c(C)cc2OC[C@@H]2CNCCO2)cn1: −0.233 log 2 fold change
Cc1ccc(NC(=O)c2ccc(CN3CCN(C)CC3)cc2)cc1Nc1nccc(-c2cccnc2)n1 [Imatinib (STI571)]: −0.038 log 2 fold change
C[C@@H](Oc1cc(-n2cnc3ccc(CN4CCN(C)CC4)cc32)sc1C(N)=O)c1ccccc1C(F)(F)F: −0.287 log 2 fold change

Briefly, Dose.FC.LYZ.NS measured for `COc1ccc2c(c1)c(C1=C(c3c[nH]c4ccccc34)C(=O)NC1=O)cn2CCCN(C)C` : −0.092 log 2 fold change
